Values from ChEMBL document CHEMBL1123975

Target: D(2) dopamine receptor (Rattus norvegicus, UniProt P61169)
Sequence (P61169 whole entry): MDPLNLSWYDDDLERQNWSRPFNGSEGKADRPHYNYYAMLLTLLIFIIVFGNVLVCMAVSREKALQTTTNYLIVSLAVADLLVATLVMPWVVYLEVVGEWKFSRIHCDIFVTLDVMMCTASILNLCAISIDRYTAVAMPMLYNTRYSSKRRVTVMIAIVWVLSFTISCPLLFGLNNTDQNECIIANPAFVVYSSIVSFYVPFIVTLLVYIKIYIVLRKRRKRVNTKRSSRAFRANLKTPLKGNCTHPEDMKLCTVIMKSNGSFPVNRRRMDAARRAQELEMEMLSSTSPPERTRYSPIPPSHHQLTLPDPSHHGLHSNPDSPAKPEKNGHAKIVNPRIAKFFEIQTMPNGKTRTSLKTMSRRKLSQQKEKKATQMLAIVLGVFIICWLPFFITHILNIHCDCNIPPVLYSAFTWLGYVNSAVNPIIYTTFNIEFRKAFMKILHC
Experiment: Displacement of [3H]-Spiperone from Dopamine receptor D2 in rat striatum
assay endpoint: log10(Ki) (log10 of the value in nM)

>>> observed_value("c1ccc(-c2ccc(CN3CCN(c4cccc5c4OCCCO5)CC3)[nH]2)cc1")
-0.17
>>> observed_value("Fc1ccc(-c2ccc(CN3CCN(c4ccc(F)cc4)CC3)[nH]2)cc1")
1.20
>>> observed_value("COc1ccccc1N1CCN(Cc2ccc(-c3ccc(C(F)(F)F)cc3)[nH]2)CC1")
1.40
>>> observed_value("COc1ccccc1N1CCN(Cc2ccc(-c3ccc(F)cc3)n2C)CC1")
1.30
>>> observed_value("Fc1ccc(-c2ccc(CN3CCC(c4ccccc4)CC3)[nH]2)cc1")
1.04
>>> observed_value("COc1ccccc1N1CCN(Cc2ccc(-c3ccccc3)n2-c2ccccc2)CC1")
2.20
>>> observed_value("COc1ccccc1N1CCN(Cc2ccc(-c3c(F)cccc3F)[nH]2)CC1")
0.04
>>> observed_value("COc1ccccc1N1CCN(Cc2ccc(-c3cccc(Cl)c3)[nH]2)CC1")
0.64
>>> observed_value("Fc1ccc(-c2ccc(CN3CCN(c4cccc5ccoc45)CC3)[nH]2)cc1")
-0.35
>>> observed_value("CCS(=O)(=O)c1ccc(OC)c(-c2ccc(CN3CCN(c4ccccc4OC)CC3)[nH]2)c1")
0.85
>>> observed_value("COc1ccccc1C1CCN(Cc2ccc(-c3ccccc3)[nH]2)CC1")
0.00
>>> observed_value("COc1ccccc1N1CCN(Cc2ccc(-c3ccccc3)[nH]2)CC1")
-0.12
>>> observed_value("OCCN1CCN(Cc2ccc(-c3ccc(F)cc3)[nH]2)CC1")
4.49
>>> observed_value("COc1ccccc1N1CCN(Cc2ccc(-c3ccc(F)cc3)n2CCO)CC1")
1.72
>>> observed_value("O=C(CCCN1CCN(c2cccc3ccoc23)CC1)c1ccc(F)cc1")
0.71
>>> observed_value("Fc1ccc(-c2ccc(CN3CCN(c4cccc(C(F)(F)F)c4)CC3)[nH]2)cc1")
1.28
>>> observed_value("COc1ccccc1N1CCN(CCCC(=O)c2ccc(F)cc2)CC1")
0.38
>>> observed_value("O=C(c1ccc(F)cc1)C1CCN(Cc2ccc(-c3ccc(F)cc3)[nH]2)CC1")
1.08
>>> observed_value("COc1ccccc1N1CCN(Cc2ccc(-c3ccc(C(C)C)cc3)[nH]2)CC1")
1.77
>>> observed_value("CCCn1c(CN2CCN(c3ccccc3OC)CC2)ccc1-c1ccc(F)cc1")
2.04
>>> observed_value("COc1ccccc1-c1ccc(CN2CCN(c3ccccc3OC)CC2)[nH]1")
0.81
>>> observed_value("O=C(NCCN1CCN(c2cccc3ccoc23)CC1)c1ccc(F)cc1")
0.85
>>> observed_value("O=C(c1ccc(F)cc1)N1CCN(Cc2ccc(-c3ccc(F)cc3)[nH]2)CC1")
2.08
>>> observed_value("COc1ccccc1N1CCN(Cc2ccc(-c3ccc(F)cc3)[nH]2)CC1")
-0.02

* * *

Tested on: Mus musculus
Assay: Antagonism of apomorphine-induced climbing behavior in mice after ip administration
Assay type: functional
// reported ED50 for each item listed
assay endpoint: ED50

>>> observed_value("Fc1ccc(-c2ccc(CN3CCN(c4cccc5ccoc45)CC3)[nH]2)cc1 [ELOPIPRAZOLE]")
"2.3 mg/kg"
>>> observed_value("COc1ccccc1C1CCN(Cc2ccc(-c3ccccc3)[nH]2)CC1")
"1.7 mg/kg"
>>> observed_value("c1ccc(-c2ccc(CN3CCN(c4cccc5c4OCCCO5)CC3)[nH]2)cc1")
"0.2 mg/kg"
>>> observed_value("COc1ccccc1N1CCN(Cc2ccc(-c3ccccc3)[nH]2)CC1")
"0.4 mg/kg"
>>> observed_value("O=C(NCCN1CCN(c2cccc3ccoc23)CC1)c1ccc(F)cc1")
"1.8 mg/kg"
>>> observed_value("O=C(CCCN1CCN(c2cccc3ccoc23)CC1)c1ccc(F)cc1")
"5 mg/kg"

* * *

Tested on: Rattus norvegicus
Assay: Suppression of conditioned avoidance behavior in rats after ip administration
Format: functional
// reported ED50 for each item listed
assay endpoint: ED50

>>> observed_value("COc1ccccc1N1CCN(CCNC(=O)c2ccc(F)cc2)CC1")
"0.7 mg/kg"
>>> observed_value("CCCn1c(CN2CCN(c3ccccc3OC)CC2)ccc1-c1ccc(F)cc1")
"> 50 mg/kg"
>>> observed_value("Fc1ccc(-c2ccc(CN3CCC(c4ccccc4)CC3)[nH]2)cc1")
"> 100 mg/kg"
>>> observed_value("OCCN1CCN(Cc2ccc(-c3ccc(F)cc3)[nH]2)CC1")
"> 100 mg/kg"
>>> observed_value("O=C(CCCN1CCN(c2cccc3ccoc23)CC1)c1ccc(F)cc1")
"5.6 mg/kg"
>>> observed_value("COc1ccccc1-c1ccc(CN2CCN(c3ccccc3OC)CC2)[nH]1")
"> 100 mg/kg"
>>> observed_value("COc1ccccc1N1CCN(Cc2ccc(-c3ccccc3)[nH]2)CC1")
"1.9 mg/kg"
>>> observed_value("Fc1ccc(-c2ccc(CN3CCN(c4cccc5ccoc45)CC3)[nH]2)cc1")
"5.4 mg/kg"
>>> observed_value("COc1ccccc1N1CCN(Cc2ccc(-c3ccc(C(C)C)cc3)[nH]2)CC1")
"> 100 mg/kg"
>>> observed_value("O=C(NCCN1CCN(c2cccc3ccoc23)CC1)c1ccc(F)cc1")
"2.7 mg/kg"
